Test system: Human immunodeficiency virus 1
Assay: Antiviral activity against HIV1 isolate 05-121774 assessed as inhibition of viral replication after 7 days by scintillation counting
Type: functional, organism-based
Settings: Human immunodeficiency virus 1, isolate 05-121774, 168 h

chem-smiles	IC50, nM
CN1CCN(c2cccc3nc(CN(C)[C@H]4CCCc5cccnc54)c(CO)n23)CC1	1

====

System: Human immunodeficiency virus 1
Test: Antiviral activity against HIV1 3B infected in human HOS cells after 72 hrs by luminescence assay in presence of 1 mg/ml alpha-acid glycoprotein
Assay type: functional, organism-based
Conditions: Human immunodeficiency virus 1, 3B

chem-smiles	measured-on	measurement-unit	IC50
CN1CCN(c2cccc3nc(CN(C)[C@H]4CCCc5cccnc54)c(CO)n23)CC1	Human immunodeficiency virus 1	nM	2.87
